B1: LINE1-full (parent)
chain: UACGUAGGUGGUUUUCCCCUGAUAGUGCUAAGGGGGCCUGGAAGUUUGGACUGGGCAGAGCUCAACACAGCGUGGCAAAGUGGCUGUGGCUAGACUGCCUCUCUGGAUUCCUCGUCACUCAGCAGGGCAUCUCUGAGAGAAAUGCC

- Variants of: B1
- experimental-details: self-cleavage, relative activity (ratio to wild type); higher = more cleavage; in vitro, sequencing; the parent is a self-cleaving ribozyme
Classify by measured self-cleavage: True if it is equal to or exceeds 0.6, False if it is smaller.

- mutation-spec: "U39C U134A"
  label-value: "True"
- mutation-spec: "C3U A77U"
  label-value: "False"
- mutation-spec: "U45C A69G"
  label-value: "False"
- mutation-spec: "G36A G40U"
  label-value: "True"
- mutation-spec: "A78G U112A"
  label-value: "True"
- mutation-spec: "C18U A129U"
  label-value: "False"
- mutation-spec: "U1A A65G"
  label-value: "False"
- mutation-spec: "C113U U119A"
  label-value: "True"
- mutation-spec: "A2U U115A"
  label-value: "True"
- mutation-spec: "A121G U143G"
  label-value: "False"
- mutation-spec: "A6G U47C"
  label-value: "False"
- mutation-spec: "U47C C84U"
  label-value: "False"
- mutation-spec: "U47G A79U"
  label-value: "True"
- mutation-spec: "A42C C95U"
  label-value: "False"
- mutation-spec: "U29A U143C"
  label-value: "True"
- mutation-spec: "A64G G74A"
  label-value: "False"
- mutation-spec: "A78G A107U"
  label-value: "True"
- mutation-spec: "G55A A94G"
  label-value: "False"
- mutation-spec: "U26A C99A"
  label-value: "False"
- mutation-spec: "U5A A78U"
  label-value: "True"
- mutation-spec: "A31U A129U"
  label-value: "False"
- mutation-spec: "U1C G139U"
  label-value: "True"
- mutation-spec: "U45A A92C"
  label-value: "False"
- mutation-spec: "C101U A121G"
  label-value: "True"
- mutation-spec: "U1G U96C"
  label-value: "True"
- mutation-spec: "C56U A142U"
  label-value: "False"
- mutation-spec: "G55A A124U"
  label-value: "False"
- mutation-spec: "U26A U132A"
  label-value: "True"
- mutation-spec: "G4C U12G"
  label-value: "True"
- mutation-spec: "U29A U47A"
  label-value: "True"
- mutation-spec: "G41A A43G"
  label-value: "False"
- mutation-spec: "U73C U109C"
  label-value: "False"
- mutation-spec: "U52A C110G"
  label-value: "True"
- mutation-spec: "U13C A121C"
  label-value: "True"
- mutation-spec: "A69U G97A"
  label-value: "False"
- mutation-spec: "A64U U134C"
  label-value: "False"
- mutation-spec: "C56U A77G"
  label-value: "False"
- mutation-spec: "U81C C128U"
  label-value: "True"
- mutation-spec: "A30G U85A"
  label-value: "False"
- mutation-spec: "U9A A78U"
  label-value: "True"
- mutation-spec: "A24G A124U"
  label-value: "True"
- mutation-spec: "A31U U39G"
  label-value: "True"
- mutation-spec: "U12C U20C"
  label-value: "True"
- mutation-spec: "A77G U132C"
  label-value: "True"
- mutation-spec: "U46G A79U"
  label-value: "True"
- mutation-spec: "G80A U96C"
  label-value: "False"
